B1: SPRY1 (parent)
chain: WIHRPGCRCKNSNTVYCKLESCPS

Variants of: B1
Test: protein stability index of a GFP-peptide fusion (GPS, HEK-293T) (PSI 1-6); higher = more stable;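 note: lentivirally expressed fusions sorted by FACS into six bins by GFP to DsRed ratio, PSI derived from sequencing read proportions per bin multiplied by bin number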
Settings: c terminus: a fixed tail appended
Parameter Measured: protein stability index
Field format: numeric only.

// recorded protein stability index for N11D : 2.88

// recorded protein stability index for Y16M : 2.02

// recorded protein stability index for G6D : 2.62

// recorded protein stability index for T14E : 2.84

// recorded protein stability index for H3A : 2.75

// recorded protein stability index for R4M : 2.85

// recorded protein stability index for L19Q : 2.59

// recorded protein stability index for N13A : 1.92

// recorded protein stability index for N13T : 2.4

// recorded protein stability index for N13E : 2.64

// recorded protein stability index for C7H : 2.55

// recorded protein stability index for N13P : 2.36

// recorded protein stability index for P5L : 2.77

// recorded protein stability index for T14R : 1.54

// recorded protein stability index for R4P : 3.03

// recorded protein stability index for V15E : 2.49

// recorded protein stability index for C9K : 1.84

// recorded protein stability index for E20Q : 2.12

// recorded protein stability index for C22P : 2.68

// recorded protein stability index for H3P : 2.79

// recorded protein stability index for C7T : 1.82

// recorded protein stability index for R4L : 3.06

// recorded protein stability index for E20K : 2.07

// recorded protein stability index for R4N : 3.43

// recorded protein stability index for P23C : 2.43

// recorded protein stability index for N13G : 2.23

// recorded protein stability index for C9W : 2.04

// recorded protein stability index for N13I : 1.67

// recorded protein stability index for H3F : 1.87

// recorded protein stability index for G6V : 1.93

// recorded protein stability index for N13D : 3.17

// recorded protein stability index for P5S : 2.27

// recorded protein stability index for C7L : 1.72

// recorded protein stability index for E20I : 1.5

// recorded protein stability index for P23W : 2.35

// recorded protein stability index for T14S : 2.59

// recorded protein stability index for S12E : 2.71

// recorded protein stability index for V15G : 2.69

// recorded protein stability index for C7I : 1.52

// recorded protein stability index for P5V : 2.65

// recorded protein stability index for P23Q : 2.41

// recorded protein stability index for L19G : 2.68

// recorded protein stability index for C7E : 1.85

// recorded protein stability index for V15I : 2.14

// recorded protein stability index for C22E : 2.02

// recorded protein stability index for K10M : 1.63
